All values here come from ChEMBL document CHEMBL5380790.

Listed below: pIC50 values for each entry.
- TARGET_OR_SYSTEM: Mast/stem cell growth factor receptor Kit (Homo sapiens, UniProt P10721, DELTA560/V654A)
- Sequence (P10721 whole entry, looked up, stated change not applied): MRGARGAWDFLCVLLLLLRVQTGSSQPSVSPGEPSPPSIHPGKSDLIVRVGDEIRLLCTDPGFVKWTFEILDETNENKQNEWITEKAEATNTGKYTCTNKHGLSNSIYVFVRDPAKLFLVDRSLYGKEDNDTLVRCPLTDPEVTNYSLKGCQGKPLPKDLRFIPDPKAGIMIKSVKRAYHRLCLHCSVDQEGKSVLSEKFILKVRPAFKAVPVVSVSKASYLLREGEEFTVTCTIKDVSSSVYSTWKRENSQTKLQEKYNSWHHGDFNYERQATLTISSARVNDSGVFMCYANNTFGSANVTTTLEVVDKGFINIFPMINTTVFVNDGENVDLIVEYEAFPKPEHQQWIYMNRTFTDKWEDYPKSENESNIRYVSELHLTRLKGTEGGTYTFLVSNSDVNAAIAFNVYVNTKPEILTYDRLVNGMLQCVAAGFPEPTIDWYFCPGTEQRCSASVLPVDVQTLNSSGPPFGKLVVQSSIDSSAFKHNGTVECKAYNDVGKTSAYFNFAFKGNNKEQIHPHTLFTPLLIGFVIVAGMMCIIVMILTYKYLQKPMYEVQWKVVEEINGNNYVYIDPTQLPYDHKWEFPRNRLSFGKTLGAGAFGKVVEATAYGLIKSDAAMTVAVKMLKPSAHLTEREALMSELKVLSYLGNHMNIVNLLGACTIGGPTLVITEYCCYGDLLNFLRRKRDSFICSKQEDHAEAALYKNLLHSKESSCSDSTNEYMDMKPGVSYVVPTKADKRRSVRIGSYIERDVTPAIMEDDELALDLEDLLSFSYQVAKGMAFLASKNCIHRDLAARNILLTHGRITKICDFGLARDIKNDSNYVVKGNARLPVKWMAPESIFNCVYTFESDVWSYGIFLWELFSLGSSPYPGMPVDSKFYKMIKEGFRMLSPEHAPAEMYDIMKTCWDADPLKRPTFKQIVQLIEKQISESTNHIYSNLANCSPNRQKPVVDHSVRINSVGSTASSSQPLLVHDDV
Conceptually, pIC50 converts a concentration in mol/L into minus its log10.

c1ccn2c(-c3cc(NCc4ccc(N5CCCC5)nc4)ncn3)cnc2c1 :: 6.37
Cn1cc(-c2ccc(CNc3cc(-c4cnc5cc(OCCN6CCC(C)(C#N)CC6)ccn45)ncn3)cc2)cn1 :: 7.03
Cc1nc(-c2ccc(CNc3cc(-c4cnc5cc(OCCN6CCC(=O)N(C)CC6)ccn45)ncn3)cc2)co1 :: 7.27

We now examine a further compound.
Qu. Can you look up pIC50 on Mast/stem cell growth factor receptor Kit (Homo sapiens, UniProt P10721, DELTA560/V654A) for `CN1CCN(CCOc2ccn3c(-c4cncc(NCc5ccc(N6CCCC6)nc5)c4)cnc3c2)CC1` ?
Ans. 6.54

###

- EXPERIMENTAL_PROTOCOL: Oral bioavailability in Cynomolgus monkey at 5 mg/kg and measured upto 24 hrs
- Type: ADME, organism-based, Macaca fascicularis
- MEASUREMENT_PARAMETERS: in vivo
ASSAY_METRIC: bioavailability
Returns: string containing the numeric result and its unit.

Qu. May I ask what bioavailability has been recorded for Cn1cc(-c2ccc(CNc3cc(-c4cnc5cc(OCCCN6CCCC6)ccn45)ncn3)cc2)cn1 [IDRX-42] ?
Ans. 31%

###

- EXPERIMENTAL_PROTOCOL: Octanol-water distribution coefficient, logD of the compound at pH 7.4
- Type: physicochemical
Listed below: logD values for each entry.
# answer = number (no unit)

Qu. May I ask what logD has been recorded for `CN1CC(COc2ccn3c(-c4cc(NCc5ccc(-c6cnn(C)c6)cc5)ncn4)cnc3c2)C1` ?
Ans. 1.9

###

Listed below: logD values for each entry.
- EXPERIMENTAL_PROTOCOL: Octanol-water distribution coefficient, logD of the compound at pH 7.4
- Assay type: physicochemical
# answer = number (no unit)

Past entries and their recorded results:
Cn1cc(-c2ccc(CNc3cc(-c4cnc5cc(OCCCN6CCCC6)ccn45)ncn3)cc2)cn1 :: 2.6
Cn1cc(-c2ccc(CNc3cc(-c4cnc5cc(OCCN6CCCC6)ccn45)ncn3)cc2)cn1 :: 2.9
Cn1cc(-c2ccc(CNc3cc(-c4cnc5cc(OCCCN6CCC(C)(F)CC6)ccn45)ncn3)cc2)cn1 :: 4.3

We now examine a further compound.
Qu. May I ask what logD has been recorded for `Cn1cc(-c2ccc(CNc3cc(-c4cnc5cc(OCCO)ccn45)ncn3)cc2)cn1` ?
Ans. 3

###

- EXPERIMENTAL_PROTOCOL: Oral biovailability in Han Wistar rat at 30 mg/kg and measured upto 24 hrs
- Format: ADME, organism-based
- MEASUREMENT_PARAMETERS: in vivo
ASSAY_METRIC: bioavailability (%)
Number in %, nothing else.

Qu. May I ask what bioavailability has been recorded for Cn1cc(-c2ccc(CNc3cc(-c4cnc5cc(OCCCN6CCCC6)ccn45)ncn3)cc2)cn1 [IDRX-42] ?
Ans. 63

###

- EXPERIMENTAL_PROTOCOL: Plasma clearance in Han Wistar rat at 0.2 mg/kg, iv and measured upto 24 hrs
- Assay type: ADME, organism-based
ASSAY_METRIC: clearance (mL/min/kg)
Number in mL/min/kg, nothing else.

Qu. May I ask what clearance has been recorded for Cn1cc(-c2ccc(CNc3cc(-c4cnc5cc(OCCCN6CCCC6)ccn45)ncn3)cc2)cn1 [IDRX-42] ?
Ans. 36.7

###

- EXPERIMENTAL_PROTOCOL: Kinetic solubility of compound in PBS buffer at pH 7.4 and measured after 2 hrs by HPLC-UV analysis
- Type: physicochemical
- MEASUREMENT_PARAMETERS: read-out: Kinetic_solubility
Listed below: solubility kinetic at 2 h values for each entry.

COCCOc1ccn2c(-c3cc(NCc4ccc(-c5cnn(C)c5)cc4)ncn3)cnc2c1 :: < 2 µM
CN(Cc1ccc(N2CCCC2)nc1)c1cncc(-c2cnc3ccccn23)c1 :: 8 µM
c1ccn2c(-c3cc(NCc4ccc(N5CCCC5)nc4)ncn3)cnc2c1 :: < 3 µM
c1ccn2c(-c3cncc(NCc4ccc(N5CCCC5)nc4)c3)cnc2c1 :: 101 µM
CC(Nc1cncc(-c2cnc3ccccn23)c1)c1ccc(N2CCCC2)nc1 (configuration not stated) :: 124 µM
COc1ccn2c(-c3cc(NCc4ccc(-c5ccccc5)cc4)ncn3)cnc2c1 :: < 2 µM

We now examine a further molecule.
Qu. May I ask what solubility kinetic at 2 h has been recorded for `COc1ccn2c(-c3cc(NCc4ccc(-c5cnn(C)c5)cc4)ncn3)cnc2c1` ?
Ans. < 2 µM

###

- EXPERIMENTAL_PROTOCOL: Solubility of compound in FeSSIF at pH 5.5
- Type: physicochemical
ASSAY_METRIC: solubility (µg/mL)
Number in µg/mL, nothing else.

Qu. May I ask what solubility has been recorded for `COCCOc1ccn2c(-c3cc(NCc4ccc(-c5cnn(C)c5)cc4)ncn3)cnc2c1` ?
Ans. 13

###

A short record of IC50 observed with Mast/stem cell growth factor receptor Kit (Homo sapiens, UniProt P10721, DELTA560/V654A) follows.
Number in nM, nothing else.

Past entries and their recorded results:
Cn1cc(-c2ccc(CNc3cc(-c4cnc5cc(OCCCN6CCC(C)(F)CC6)ccn45)ncn3)cc2)cn1 :: 73
COc1ccn2c(-c3cncc(NCc4ccc(N5CCCC5)nc4)c3)cnc2c1 :: 300
COCCOc1ccn2c(-c3cc(NCc4ccc(-c5cnn(C)n5)cc4)ncn3)cnc2c1 :: 46
Cn1cc(-c2ccc(CNc3cc(-c4cnc5cc(OCCN6CCCC6)ccn45)ncn3)cc2)cn1 :: 70
COc1ccn2c(-c3cc(NCc4ccc(-c5cnn(C)n5)cc4)ncn3)cnc2c1 :: 78
CN1CC(COc2ccn3c(-c4cc(NCc5ccc(-c6cnn(C)c6)cc5)ncn4)cnc3c2)C1 :: 61
COCCOc1ccn2c(-c3cncc(NCc4ccc(N5CCCC5)nc4)c3)cnc2c1 :: 110
COc1ccn2c(-c3cc(NCc4ccc(-c5cnn(C)c5)cc4)ncn3)cnc2c1 :: 55

Qu. May I ask what IC50 has been recorded for `Cn1cc(-c2ccc(CNc3cc(-c4cnc5cc(OCCN6CCn7nncc7C6)ccn45)ncn3)cc2)cn1` ?
Ans. 76

###

- EXPERIMENTAL_PROTOCOL: Kinetic solubility of compound in PBS buffer at pH 7.4 and measured after 2 hrs by HPLC-UV analysis
- Assay type: physicochemical
- MEASUREMENT_PARAMETERS: read-out: Kinetic_solubility
ASSAY_METRIC: solubility kinetic at 2 h (µM)
Number in µM, nothing else.

Past entries and their recorded results:
CN1CCN(CCOc2ccn3c(-c4cncc(NCc5ccc(N6CCCC6)nc5)c4)cnc3c2)CC1 :: 100
COCCOc1ccn2c(-c3cncc(NCc4ccc(N5CCCC5)nc4)c3)cnc2c1 :: 9
c1ccn2c(-c3nccc(NCc4ccc(N5CCCC5)cc4)n3)cnc2c1 :: 7

We now examine a further compound.
Qu. May I ask what solubility kinetic at 2 h has been recorded for `COc1ccn2c(-c3cncc(NCc4ccc(N5CCCC5)nc4)c3)cnc2c1` ?
Ans. 81

###

- EXPERIMENTAL_PROTOCOL: Metabolic stability in human hepatocytes assessed as intrinsic clearance measured per million cells
- Format: ADME, cell-based, Hepatocyte
- MEASUREMENT_PARAMETERS: read-out: CLH
Note to self: use YES only for hepatocyte CLint readings below 10 µL/min/1e6 cells; a reading exactly at 10 µL/min/1e6 cells still gets NO.

Examples from the recorded data:
COCCOc1ccn2c(-c3cc(NCc4ccc(-c5cnn(C)c5)cc4)ncn3)cnc2c1 :: NO
COc1ccn2c(-c3cc(NCc4ccc(-c5cnn(C)n5)cc4)ncn3)cnc2c1 :: YES
Cn1cc(-c2ccc(CNc3cc(-c4cnc5cc(OCCN6CCCC6)ccn45)ncn3)cc2)cn1 :: NO
Cn1cc(-c2ccc(CNc3cc(-c4cnc5cc(OCCN6CCC(C)(C#N)CC6)ccn45)ncn3)cc2)cn1 :: NO
COCCOc1ccn2c(-c3cc(NCc4ccc(-c5cnn(C)n5)cc4)ncn3)cnc2c1 :: YES
CN1CC(COc2ccn3c(-c4cc(NCc5ccc(-c6cnn(C)c6)cc5)ncn4)cnc3c2)C1 :: YES

Qu. Please check: hepatocyte CLint for `Cn1cc(-c2ccc(CNc3cc(-c4cnc5cc(OCCO)ccn45)ncn3)cc2)cn1` , strictly under 10 µL/min/1e6 cells or not?
Ans. YES

Qu. Please check: hepatocyte CLint for Cn1cc(-c2ccc(CNc3cc(-c4cnc5cc(OCCCN6CCCC6)ccn45)ncn3)cc2)cn1 [IDRX-42] , strictly under 10 µL/min/1e6 cells or not?
Ans. NO

Qu. Please check: hepatocyte CLint for `Cc1nc(-c2ccc(CNc3cc(-c4cnc5cc(OCCN6CCC(=O)N(C)CC6)ccn45)ncn3)cc2)co1` , strictly under 10 µL/min/1e6 cells or not?
Ans. YES

Qu. Please check: hepatocyte CLint for `Cn1cc(-c2ccc(CNc3cc(-c4cnc5cc(OCCN6CCn7nncc7C6)ccn45)ncn3)cc2)cn1` , strictly under 10 µL/min/1e6 cells or not?
Ans. YES
